- Test system: F1*sub RNA substrate (template-directed ligation)
- test.method.notes: fraction ligated after 30 min (ligated reads / total reads); higher = more ligase activity; sequences stand for … in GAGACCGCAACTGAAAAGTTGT…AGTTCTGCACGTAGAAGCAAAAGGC
- condition.summary: 42 °C
attribute.measured: fraction ligated
// no unit, no text: just the number

Data request: Entry TATCACTTTGTAAGACACTTTGGATGGGTTGA [2d147] has what fraction ligated?
Data returned: 0.838

Data request: Entry TATCACTTTCGAAGACACTTTGATGGGTTGA [3d1500] has what fraction ligated?
Data returned: 0.767

Data request: Entry TATCACTTGTCGTAAGACACTTTGATGGTTGA [2d286] has what fraction ligated?
Data returned: 0.0395

Data request: Entry TATCCTTGTCGTAAGAACTTTGGAGGGTTGA [3d1079] has what fraction ligated?
Data returned: 0.00912

Data request: Entry TATACTGCGTAAGACACTTTGGATGGGTTGA [3d779] has what fraction ligated?
Data returned: 0.779

Data request: Entry TATCATTGTCGTAAGAACTTTGATGGGTTGA [3d1249] has what fraction ligated?
Data returned: 0.545

Data request: Entry TATCACTGTCGAAACACTTTGGATGGGTTGA [3d1373] has what fraction ligated?
Data returned: 0.83

Data request: Entry TATCACTTTCGTAAACACTTTGATGGGTTGA [3d1523] has what fraction ligated?
Data returned: 0.768

Data request: Entry TATCACTTGTCTAGACACTTTGGATGGGTTGA [2d195] has what fraction ligated?
Data returned: 0.799

Data request: Entry TATCACTTTCGTAGACACTTTGGATGGGTTG [3d1518] has what fraction ligated?
Data returned: 0.786

Data request: Entry ATCATTGTCGTAAGACATTTGGATGGGTTGA [3d97] has what fraction ligated?
Data returned: 0.729

Data request: Entry ATCACTTGCGTAAGACACTTTGGAGGGTTGA [3d152] has what fraction ligated?
Data returned: 0.061

Data request: Entry TATCACTTGTCTAAGACATTGGATGGGTTGA [3d1871] has what fraction ligated?
Data returned: 0.796

Data request: Entry TATCACTTTCGTAAGACACTTGATGGGTTGA [3d1562] has what fraction ligated?
Data returned: 0.787

Data request: Entry ATCCTTGTCGTAAACACTTTGGATGGGTTGA [3d74] has what fraction ligated?
Data returned: 0.789

Data request: Entry TACACTTGTCGTAAGACACTTTGGTGGTTGA [3d728] has what fraction ligated?
Data returned: 0.0111

Data request: Entry TATCATTGTGTAAGACACTTTGATGGGTTGA [3d1181] has what fraction ligated?
Data returned: 0.308

Data request: Entry TACACTTGTCGTAAGCCTTTGGATGGGTTGA [3d683] has what fraction ligated?
Data returned: 0.0763

Data request: Entry ATCACTTGTGTAAGAACTTTGGATGGGTTGA [3d161] has what fraction ligated?
Data returned: 0.88

Data request: Entry TTCCTTGTCGTAAGACACTTGGATGGGTTGA [3d310] has what fraction ligated?
Data returned: 0.776

Data request: Entry TATACTTGTCGTAAACACTTTGGATGGGTTGA [2d78] has what fraction ligated?
Data returned: 0.493

Data request: Entry TATACTTGTCGTAAGACATTTGATGGGTTGA [3d919] has what fraction ligated?
Data returned: 0.735

Data request: Entry TATCACTTCGTAAGACACTTTGGTGGGTTGA [3d1322] has what fraction ligated?
Data returned: 0.085

Data request: Entry TATCACTTGTCGTAAGAACTTGGATGGGTTGA [2d255] has what fraction ligated?
Data returned: 0.805

Data request: Entry TATCCTTTCGTAAGCACTTTGGATGGGTTGA [3d973] has what fraction ligated?
Data returned: 0.77

Data request: Entry ATCACTTGTCGTAAGAATTTGGATGGGTTGA [3d231] has what fraction ligated?
Data returned: 0.757

Data request: Entry ATCACTTGGTAAGACACTTTGGATGGGTTGA [3d140] has what fraction ligated?
Data returned: 0.735

Data request: Entry TATCACTTGTGTAGAACTTTGGATGGGTTGA [3d1734] has what fraction ligated?
Data returned: 0.822

Data request: Entry TTCACTTGCTAAGACACTTTGGATGGGTTGA [3d372] has what fraction ligated?
Data returned: 0.729

Data request: Entry TATCACTTGTGTAAGACCTTTGGATGGGTTG [3d1778] has what fraction ligated?
Data returned: 0.812

Data request: Entry TATCCTTGTGTAAGACACTTTGGAGGGTTGA [3d1011] has what fraction ligated?
Data returned: 0.0114

Data request: Entry TATCACTTGTCGTAAGACACTTTGGGGTTGA [3d2260] has what fraction ligated?
Data returned: 0.0415

Data request: Entry TATCATGTCGTAAGCACTTTGGATGGGTTGA [3d1129] has what fraction ligated?
Data returned: 0.761

Data request: Entry TTCACTTGTCTAAGACACTTGGATGGGTTGA [3d409] has what fraction ligated?
Data returned: 0.435

Data request: Entry TATCACTGTCGAAGACACTTTGGATGGGTTGA [2d133] has what fraction ligated?
Data returned: 0.835

Data request: Entry TATCATTGTCGTAAGAACTTTGGAGGGTTGA [3d1251] has what fraction ligated?
Data returned: 0.0299

Data request: Entry TATCACTTGTCGTAAGACACTTTGAGGGTTG [3d2266] has what fraction ligated?
Data returned: 0.00798

Data request: Entry TATACTTGTCGTAAGACACTTTGGATGGTTGA [2d87] has what fraction ligated?
Data returned: 0.127

Data request: Entry TATCACTTGCGTAAGACACTTGGAGGGTTGA [3d1684] has what fraction ligated?
Data returned: 0.0856

Data request: Entry TTCACTTGCGTAAGAACTTTGGATGGGTTGA [3d377] has what fraction ligated?
Data returned: 0.52

Data request: Entry TATCACTTGTCGTAAGACACTTTGGTGGTTG [3d2274] has what fraction ligated?
Data returned: 0.0129

Data request: Entry TATCCTTGTCGTAGCACTTTGGATGGGTTGA [3d1044] has what fraction ligated?
Data returned: 0.774

Data request: Entry TATACTTTCGTAAGACACTTTGGATGGGTTG [3d811] has what fraction ligated?
Data returned: 0.145

Data request: Entry TATCCTTGTCGTAAGACACTGGATGGGTTGA [3d1097] has what fraction ligated?
Data returned: 0.756

Data request: Entry TATCACTTCGTAAGACACTTTGGAGGGTTGA [3d1323] has what fraction ligated?
Data returned: 0.0267

Data request: Entry TATACTTGTCGTAAGCACTTTGGATGGGTTG [3d902] has what fraction ligated?
Data returned: 0.502

Data request: Entry TATCACTTGTAAGACACTTTGGATGGGTTGA [3d1311] has what fraction ligated?
Data returned: 0.837
